- assay.protocol: Drug metabolism in sc dosed acetic acid-induced Kunming writhing mouse model assessed as metabolites in urine
- Assay type: ADME, organism-based
- reported.conditions: in vivo

- chemical.structure: "CCN1C[C@]2(OC(=O)c3ccccc3NS(=O)(=O)c3ccccc3OC)CC[C@H](OC)[C@]34C1[C@H](C[C@H]23)[C@@]1(O)C[C@H](OC)[C@H]2C[C@@H]4[C@]1(O)[C@H]2OC"
  Drug metabolism: "Metabolite_Detected"
- chemical.structure: "CCN1C[C@]2(OC(=O)c3ccccc3NC(=O)c3ccc(N(C)C)cc3)CC[C@H](OC)[C@]34C1[C@H](C[C@H]23)[C@@]1(O)C[C@H](OC)[C@H]2C[C@@H]4[C@]1(O)[C@H]2OC"
  Drug metabolism: "Metabolite_Detected"
- chemical.structure: "CCN1C[C@]2(OC(=O)c3ccccc3NS(=O)(=O)c3ccccc3)CC[C@H](OC)[C@]34C1[C@H](C[C@H]23)[C@@]1(O)C[C@H](OC)[C@H]2C[C@@H]4[C@]1(O)[C@H]2OC"
  Drug metabolism: "Metabolite_Detected"
- chemical.structure: "CCN1C[C@]2(OC(=O)c3ccccc3NS(=O)(=O)c3ccccn3)CC[C@H](OC)[C@]34C1[C@H](C[C@H]23)[C@@]1(O)C[C@H](OC)[C@H]2C[C@@H]4[C@]1(O)[C@H]2OC"
  Drug metabolism: "Metabolite_Detected"

---

- assay.protocol: Acute toxicity in sc dosed Kunming mouse assessed as mortality rate measured after 24 hrs
- Format: organism-based
- reported.conditions: in vivo
Recorded measurements of LD50 at 24 h, one per entry
measurement.kind: LD50 at 24 h (mg/kg)

- chemical.structure: "CCN1C[C@]2(OC(=O)c3ccccc3NC(=O)c3ccc(OC)cc3)CC[C@H](OC)[C@]34C1[C@H](C[C@H]23)[C@@]1(O)C[C@H](OC)[C@H]2C[C@@H]4[C@]1(O)[C@H]2OC"
  measurement.kind: "LD50 at 24 h"
  result.comparator: "="
  numeric.result: 296
- chemical.structure: "CCN1C[C@]2(OC(=O)c3ccccc3NS(=O)(=O)c3ccccc3)CC[C@H](OC)[C@]34C1[C@H](C[C@H]23)[C@@]1(O)C[C@H](OC)[C@H]2C[C@@H]4[C@]1(O)[C@H]2OC"
  measurement.kind: "LD50 at 24 h"
  result.comparator: ">"
  numeric.result: 600
- chemical.structure: "CCCOc1ccc(C(=O)Nc2ccccc2C(=O)O[C@@]23CC[C@H](OC)[C@]45C([C@H](C[C@H]24)[C@@]2(O)C[C@H](OC)[C@H]4C[C@@H]5[C@]2(O)[C@H]4OC)N(CC)C3)cc1"
  measurement.kind: "LD50 at 24 h"
  result.comparator: "="
  numeric.result: 214
- chemical.structure: "CCN1C[C@]2(OC(=O)c3ccccc3NC(=O)c3ccc(OC(C)C)cc3)CC[C@H](OC)[C@]34C1[C@H](C[C@H]23)[C@@]1(O)C[C@H](OC)[C@H]2C[C@@H]4[C@]1(O)[C@H]2OC"
  measurement.kind: "LD50 at 24 h"
  result.comparator: "="
  numeric.result: 196

Taken from ChEMBL document CHEMBL5352433.
